Origin of the recorded values: patent US11759462B2

system tested: Recombinant human TPH1 (MBP tagged) (Homo sapiens, UniProt P17752)
Construct: cloning full length human TPH1 cDNA in to a bacterial pMAL-c5E expression vector; made in house; host or cells: E. coli BL21 (DE3)
method: TPH1 in vitro inhibition assay (kinetic fluorescence)
Format: biochemical
condition info: read-out: TPH1 Range (TPH1 inhibition IC50)

>  <molecule>
C/C=C/c1ccc([C@@H](Oc2cc(N3CCC4(CC3)CN[C@H](C(=O)O)C4)nc(N)n2)C(F)(F)F)c(-c2cccc(S(C)(=O)=O)c2)c1 [Example 53]

>  <IC50>
< 50 nM

$$$$
>  <molecule>
CCOC(=O)c1ccccc1-c1ccc(-n2ccc(C)n2)c([C@@H](Oc2cc(N3CCC4(CC3)CN[C@H](C(=O)O)C4)nc(N)n2)C(F)(F)F)c1 [Example 20]

>  <IC50>
< 50 nM

$$$$
>  <molecule>
Cc1ccn(-c2cc(-c3ccc(Cl)cc3)ccc2[C@@H](Oc2cc(N3CCC4(CC3)CN[C@H](C(=O)O)C4)nc(N)n2)C(F)(F)F)n1 [Example 1ah]

>  <IC50>
< 50 nM

$$$$
>  <molecule>
Nc1nc(O[C@H](c2ccc(-c3cccc(C(=O)O)c3)cc2)C(F)(F)F)cc(N2CCC3(CC2)CN[C@H](C(=O)O)C3)n1 [Example 55bq]

>  <IC50>
300 to 3000 nM

$$$$
>  <molecule>
Nc1nc(O[C@H](c2ccc(-c3cccc(CO)c3)cc2)C(F)(F)F)cc(N2CCC3(CC2)CN[C@H](C(=O)O)C3)n1 [Example 55bt]

>  <IC50>
300 to 3000 nM

$$$$
>  <molecule>
Cc1ccn(-c2cc(-c3cccc(Cl)c3)ccc2[C@@H](Oc2cc(N3CCC4(CC3)CN[C@H](C(=O)O)C4)nc(N)n2)C(F)(F)F)n1 [Example 1bk]

>  <IC50>
< 50 nM

$$$$

###

system tested: Recombinant human TPH1 (MBP tagged) (Homo sapiens, UniProt P17752)
Construct: cloning full length human TPH1 cDNA in to a bacterial pMAL-c5E expression vector; made in house; host or cells: E. coli BL21 (DE3)
method: TPH1 in vitro inhibition assay (kinetic fluorescence)
Format: biochemical
condition info: read-out: TPH1 Range (TPH1 inhibition IC50)
pIC50: −log10 of the molar value.
readout type: pIC50

>  <compound>
COc1ccc(F)cc1-c1ccc([C@@H](Oc2cc(N3CCC4(CC3)CN[C@H](C(=O)O)C4)nc(N)n2)C(F)(F)F)cc1 [Example 55da]

>  <readout type>
pIC50

>  <result>
5.52 to 6.52

$$$$
>  <compound>
CC(C)Oc1cc(F)cc(-c2cc(Cl)ccc2[C@@H](Oc2cc(N3CCC4(CC3)CN[C@H](C(=O)O)C4)nc(N)n2)C(F)(F)F)c1 [Example 34bl]

>  <readout type>
pIC50

>  <result>
6.52 to 7.30

$$$$
>  <compound>
CCOc1cccc(-c2ccc([C@@H](Oc3cc(N4CCC5(CC4)CN[C@H](C(=O)O)C5)nc(N)n3)C(F)(F)F)cc2)c1 [Example 55au]

>  <readout type>
pIC50

>  <result>
6.52 to 7.30

$$$$
>  <compound>
Nc1nc(O[C@H](c2ccc(-c3ccc4ccncc4c3)cc2)C(F)(F)F)cc(N2CCC3(CC2)CN[C@H](C(=O)O)C3)n1 [Example 55be]

>  <readout type>
pIC50

>  <result>
> 7.30

$$$$
>  <compound>
Cc1ccn(-c2cc(-c3ccc4ccccc4c3)ccc2[C@@H](Oc2cc(N3CCC4(CC3)CN[C@H](C(=O)O)C4)nc(N)n2)C(F)(F)F)n1

>  <readout type>
pIC50

>  <result>
6.52 to 7.30

$$$$
>  <compound>
Cc1ccn(-c2cc(-c3ccc(C(F)(F)F)c(Cl)c3)ccc2[C@@H](Oc2cc(N3CCC4(CC3)CN[C@H](C(=O)O)C4)nc(N)n2)C(F)(F)F)n1

>  <readout type>
pIC50

>  <result>
> 7.30

$$$$
>  <compound>
Nc1nc(O[C@H](c2ccc(Cl)cc2-c2cccc(C(=O)N3CCCC3)c2)C(F)(F)F)cc(N2CCC3(CC2)CN[C@H](C(=O)O)C3)n1 [Example 34ca]

>  <readout type>
pIC50

>  <result>
6.52 to 7.30

$$$$
>  <compound>
Cc1ccn(-c2cc(-c3ccc(OCC(C)(C)C)cc3)ccc2[C@@H](Oc2cc(N3CCC4(CC3)CN[C@H](C(=O)O)C4)nc(N)n2)C(F)(F)F)n1

>  <readout type>
pIC50

>  <result>
> 7.30

$$$$
>  <compound>
Cc1ccn(-c2cc(-c3ccc(C(C)(C)C)cc3)ccc2[C@@H](Oc2cc(N3CCC4(CC3)CN[C@H](C(=O)O)C4)nc(C)n2)C(F)(F)F)n1 [Example 29r]

>  <readout type>
pIC50

>  <result>
> 7.30

$$$$
>  <compound>
Cc1ncc(-c2cc(Cl)ccc2[C@@H](Oc2cc(N3CCC4(CC3)CN[C@H](C(=O)O)C4)nc(N)n2)C(F)(F)F)s1 [Example 34ci]

>  <readout type>
pIC50

>  <result>
6.52 to 7.30

$$$$
>  <compound>
Nc1nc(OC(c2c(Br)cccc2Br)C(F)(F)F)cc(N2CCC3(CC2)CN[C@H](C(=O)O)C3)n1 (stereo partly drawn)

>  <readout type>
pIC50

>  <result>
5.52 to 6.52

$$$$
>  <compound>
CCc1ccc(-c2ccc([C@@H](Oc3cc(N4CCC5(CC4)CN[C@H](C(=O)O)C5)nc(N)n3)C(F)(F)F)cc2)cc1 [Example 55bz]

>  <readout type>
pIC50

>  <result>
6.52 to 7.30

$$$$

###

system tested: Recombinant human TPH1 (MBP tagged) (Homo sapiens, UniProt P17752)
Construct: cloning full length human TPH1 cDNA in to a bacterial pMAL-c5E expression vector; made in house; host or cells: E. coli BL21 (DE3)
Sequence (P17752 1-444): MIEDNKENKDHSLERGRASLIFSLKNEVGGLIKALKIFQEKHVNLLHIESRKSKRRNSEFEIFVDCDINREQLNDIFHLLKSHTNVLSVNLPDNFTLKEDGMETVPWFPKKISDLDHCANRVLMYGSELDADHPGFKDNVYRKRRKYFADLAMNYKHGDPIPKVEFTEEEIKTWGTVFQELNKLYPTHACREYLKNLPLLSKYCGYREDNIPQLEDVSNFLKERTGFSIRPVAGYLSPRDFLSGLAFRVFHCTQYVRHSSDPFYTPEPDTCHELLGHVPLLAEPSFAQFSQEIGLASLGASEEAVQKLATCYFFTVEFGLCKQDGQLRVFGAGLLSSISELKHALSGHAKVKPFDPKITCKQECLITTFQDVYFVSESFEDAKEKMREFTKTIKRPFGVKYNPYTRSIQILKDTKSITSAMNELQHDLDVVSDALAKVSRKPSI
method: TPH1 in vitro inhibition assay (kinetic fluorescence)
Assay type: biochemical
condition info: read-out: TPH1 Range (TPH1 inhibition IC50)
The compounds listed here are annotated with their IC50.
readout type: IC50

>  <compound>
CCCOc1ccc(-c2ccc([C@@H](Oc3cc(N4CCC5(CC4)CN[C@H](C(=O)O)C5)nc(N)n3)C(F)(F)F)c(-c3ccccc3)c2)cc1 [Example 54c]

>  <result>
< 50 nM

$$$$
>  <compound>
Cc1ccn(-c2cc(-c3cccc(C(=O)N(C)C)c3)ccc2[C@@H](Oc2cc(N3CCC4(CC3)CN[C@H](C(=O)O)C4)nc(C)n2)C(F)(F)F)n1 [Example 29m]

>  <result>
50 to 300 nM

$$$$
>  <compound>
CCCc1ccc(-c2cccc(S(C)(=O)=O)c2)c([C@@H](Oc2cc(N3CCC4(CC3)CN[C@H](C(=O)O)C4)nc(N)n2)C(F)(F)F)c1

>  <result>
< 50 nM

$$$$
>  <compound>
Cc1ccn(-c2ccc(Cl)cc2[C@@H](Oc2cc(N3CCC4(CC3)CNC(C(=O)O)C4)nc(N)n2)C(F)(F)F)n1 (stereo partly drawn) [Example 10k]

>  <result>
50 to 300 nM

$$$$
>  <compound>
Cc1ccn(-c2cc(-c3ccc4ncccc4c3)ccc2[C@@H](Oc2cc(N3CCC4(CC3)CN[C@H](C(=O)O)C4)nc(N)n2)C(F)(F)F)n1

>  <result>
< 50 nM

$$$$
>  <compound>
Nc1nc(O[C@H](c2ccc(-c3cccc(OC(F)(F)F)c3)cc2)C(F)(F)F)cc(N2CCC3(CC2)CN[C@H](C(=O)O)C3)n1 [Example 55at]

>  <result>
50 to 300 nM

$$$$
>  <compound>
Nc1nc(O[C@H](c2ccc(Br)cc2)C(F)(F)F)cc(N2CCC3(CC2)CN[C@H](C(=O)O)C3)n1

>  <result>
300 to 3000 nM

$$$$
>  <compound>
Nc1nc(O[C@H](c2ccc(-c3ccc4cnoc4c3)cc2)C(F)(F)F)cc(N2CCC3(CC2)CN[C@H](C(=O)O)C3)n1 [Example 55g]

>  <result>
300 to 3000 nM

$$$$
>  <compound>
Cc1ccn(-c2cc(Cl)ccc2[C@@H](Oc2cc(Oc3ccccc3)nc(N3CCC4(CC3)CNC(C(=O)O)C4)n2)C(F)(F)F)n1 (stereo partly drawn)

>  <result>
3000 to 10000 nM

$$$$
>  <compound>
CNS(=O)(=O)c1cccc(-c2cc(Cl)ccc2[C@@H](Oc2cc(N3CCC4(CC3)CN[C@H](C(=O)O)C4)nc(N)n2)C(F)(F)F)c1 [Example 34ck]

>  <result>
50 to 300 nM

$$$$
>  <compound>
Nc1nc(O[C@H](c2ccc(-c3ccc4c(c3)CCNC4=O)cc2)C(F)(F)F)cc(N2CCC3(CC2)CN[C@H](C(=O)O)C3)n1 [Example 55bc]

>  <result>
< 50 nM

$$$$
>  <compound>
Cc1ccn(-c2cc(-c3ccc(F)c(C(F)(F)F)c3)ccc2[C@@H](Oc2cc(N3CCC4(CC3)CN[C@H](C(=O)O)C4)nc(N)n2)C(F)(F)F)n1

>  <result>
50 to 300 nM

$$$$
>  <compound>
COc1ccc(F)c(-c2ccc([C@@H](Oc3cc(N4CCC5(CC4)CN[C@H](C(=O)O)C5)nc(N)n3)C(F)(F)F)cc2)c1 [Example 55bn]

>  <result>
3000 to 10000 nM

$$$$
>  <compound>
CCOc1ccc(-c2ccc([C@@H](Oc3cc(N4CCC5(CC4)CN[C@H](C(=O)O)C5)nc(N)n3)C(F)(F)F)c(-n3ccc(C)n3)c2)cn1

>  <result>
< 50 nM

$$$$
>  <compound>
Cc1cc(-c2cc(Cl)ccc2[C@@H](Oc2cc(N3CCC4(CC3)CN[C@H](C(=O)O)C4)nc(N)n2)C(F)(F)F)ccc1F [Example 34bd]

>  <result>
< 50 nM

$$$$
>  <compound>
Nc1nc(OCC2C3CC4CC(C3)CC2C4)cc(N2CCC3(CC2)CN[C@H](C(=O)O)C3)n1 (stereo partly drawn)

>  <result>
300 to 3000 nM

$$$$
>  <compound>
Cn1cccc(-c2cc(Cl)ccc2[C@@H](Oc2cc(N3CCC4(CC3)CN[C@H](C(=O)O)C4)nc(N)n2)C(F)(F)F)c1=O [Example 34cj]

>  <result>
50 to 300 nM

$$$$
>  <compound>
COc1cc(-c2ccc([C@@H](Oc3cc(N4CCC5(CC4)CN[C@H](C(=O)O)C5)nc(C)n3)C(F)(F)F)c(-n3ccc(C)n3)c2)ccn1 [Example 29a]

>  <result>
< 50 nM

$$$$
>  <compound>
Cc1ccn(-c2cc(C(O)CO)ccc2[C@@H](Oc2cc(N3CCC4(CC3)CN[C@H](C(=O)O)C4)nc(N)n2)C(F)(F)F)n1 (stereo partly drawn)

>  <result>
50 to 300 nM

$$$$
>  <compound>
Nc1nc(O[C@H](c2ccc(Br)cc2N2CCNCC2)C(F)(F)F)cc(N2CCC3(CC2)CN[C@H](C(=O)O)C3)n1 [Example 36d]

>  <result>
3000 to 10000 nM

$$$$
>  <compound>
Nc1nc(O[C@H](c2ccc(-c3ccc(S(N)(=O)=O)cc3)cc2)C(F)(F)F)cc(N2CCC3(CC2)CN[C@H](C(=O)O)C3)n1 [Example 55dj]

>  <result>
50 to 300 nM

$$$$
>  <compound>
Nc1nc(O[C@H](c2ccc(-c3ccc4c(c3)NCCN4)cc2)C(F)(F)F)cc(N2CCC3(CC2)CN[C@H](C(=O)O)C3)n1

>  <result>
50 to 300 nM

$$$$
>  <compound>
Cc1ccn(-c2cc(-c3ccc4cccnc4c3)ccc2[C@@H](Oc2cc(N3CCC4(CC3)CN[C@H](C(=O)O)C4)nc(N)n2)C(F)(F)F)n1

>  <result>
< 50 nM

$$$$
>  <compound>
Cc1c[nH]c2ccc(-c3ccc([C@@H](Oc4cc(N5CCC6(CC5)CN[C@H](C(=O)O)C6)nc(N)n4)C(F)(F)F)cc3)cc12 [Example 55ac]

>  <result>
50 to 300 nM

$$$$
